Form field: Systolic blood pressure (one value per entry).
system: Rattus norvegicus; assay: Systolic blood pressure (SBP) in anesthetized spontaneously hypertensive rats (SHR) before administration of 75 mg/kg dose perorally.; format: functional; design: unit: mmHg; conditions: route oral
Measured Metric: Systolic blood pressure

[[record]]
compound = "CC(C)NCC(O)COc1ccc2c(=O)cc(-c3ccc([N+](=O)[O-])cc3)oc2c1 (stereo unspecified)"
data_value = 202

[[record]]
compound = "CC(C)NCC(O)COc1ccc2c(c1)OC(c1ccccc1)CC2=O (stereo unspecified)"
data_value = 198

[[record]]
compound = "CC(C)NCC(O)COc1cc(O)c2c(=O)cc(-c3ccccc3)oc2c1 (stereo unspecified)"
data_value = 195

[[record]]
compound = "CC(C)N(Cc1ccccc1)CC(O)COc1ccc2c(=O)cc(-c3ccccc3)oc2c1 (stereo unspecified)"
data_value = 200

[[record]]
compound = "CCCNCC(O)COc1ccc2c(=O)cc(-c3ccccc3)oc2c1 (stereo unspecified)"
data_value = 203

[[record]]
compound = "O=c1cc(-c2ccccc2)oc2cc(OCC(O)CNCC(O)COc3ccccc3)ccc12 (stereo unspecified)"
data_value = 198

